System Under Test: T1, human Plexin B1 (human, UniProt O43157 20-535, limits assumed)
T1 sequence (looked up): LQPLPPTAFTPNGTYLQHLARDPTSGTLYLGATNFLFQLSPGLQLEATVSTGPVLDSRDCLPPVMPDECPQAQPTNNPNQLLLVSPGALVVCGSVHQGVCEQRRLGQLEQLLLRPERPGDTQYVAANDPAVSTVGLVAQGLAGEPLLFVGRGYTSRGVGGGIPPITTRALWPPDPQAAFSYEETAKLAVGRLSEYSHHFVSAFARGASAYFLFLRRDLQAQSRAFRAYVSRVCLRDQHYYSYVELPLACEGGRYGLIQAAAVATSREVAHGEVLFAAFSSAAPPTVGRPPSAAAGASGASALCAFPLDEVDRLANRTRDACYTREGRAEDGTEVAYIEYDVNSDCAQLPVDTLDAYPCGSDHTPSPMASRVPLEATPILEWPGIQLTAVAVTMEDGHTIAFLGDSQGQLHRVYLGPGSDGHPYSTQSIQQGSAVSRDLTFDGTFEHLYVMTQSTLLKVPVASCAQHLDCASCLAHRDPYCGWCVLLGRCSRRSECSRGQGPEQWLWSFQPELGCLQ
Assay Method Text: SPR
Positions of bridges follow the written chain, without caps; N, C: chain ends. Non-standard residues stand in square brackets, D forms with d. No end group written: not given here.
Endpoint Label: kon (M⁻¹ s⁻¹)
Write the value in M⁻¹ s⁻¹ as a bare number.

-- ask Fill in kon for record {CH2CO}-[dW]NSNVLSWQTYSWYCS (thioether N-15) [SEQ ID NO 38]
-- reply 38000

-- ask Fill in kon for record {CH2CO}-[dW]AVSNLPPRPHITYIECS (thioether N-17) [SEQ ID NO 40]
-- reply 20000

-- ask Fill in kon for record {CH2CO}-[dW]NGTLSWQTYSHLCS (thioether N-14) [SEQ ID NO 39]
-- reply 53000

-- ask Fill in kon for record {CH2CO}-[dW]RPRVARWTGQIIYCS (thioether N-15) [SEQ ID NO 30]
-- reply 3.46e+06

-- ask Fill in kon for record {CH2CO}-[dW]RPRAARWTGQIIYCS (thioether N-15) [SEQ ID NO 37]
-- reply 21000

-- ask Fill in kon for record {CH2CO}-[dW]RVRVERWTGKLICS (thioether N-14) [SEQ ID NO 31]
-- reply 4.27e+06
